tested on: 323965-272-R-J2-PDC complex spheroid viability; test: Anticancer human tumor 323965-272-R-J2-PDC patient-derived pancreatic carcinoma cell line growth inhibition [CLK]; details: second compound 0.0316 µM; first compound 0.0949 µM; hits give low values
Provide the reported viability, T/C of each item.
Numbers only, in %.

// below: answered molecules
Molecule	Readout Units	viability, T/C
CC(C)CC(NC(=O)C(Cc1ccccc1)NC(=O)c1cnccn1)B(O)O (stereo unspecified) + CN1CCN(c2cc(C(=O)Nc3cc4cc(-c5cnn(C)c5)ccc4cn3)ccn2)CC1	%	0.27
CC(C)CC(NC(=O)C(Cc1ccccc1)NC(=O)c1cnccn1)B(O)O (stereo unspecified) + CNC(=O)c1ccc(Nc2nc(OC3CCCC3)c3c(-c4ccc5nc(C)oc5c4)c[nH]c3n2)c(OC)c1	%	0.4
C=CC(=O)Nc1cc(Nc2nccc(-c3cn(C)c4ccccc34)n2)c(OC)cc1N(C)CCN(C)C + CN1CCN(c2cc(C(=O)Nc3cc4cc(-c5cnn(C)c5)ccc4cn3)ccn2)CC1	%	82

Could I get viability, T/C for every one of these entries?
1. NC(=O)C(=Cn1cnc(-c2cc(C(F)(F)F)cc(C(F)(F)F)c2)n1)c1cncnc1 + CNC(=O)c1ccc(Nc2nc(OC3CCCC3)c3c(-c4ccc5nc(C)oc5c4)c[nH]c3n2)c(OC)c1
2. NC(=O)C(=Cn1cnc(-c2cc(C(F)(F)F)cc(C(F)(F)F)c2)n1)c1cncnc1 + CN1CCN(c2cc(C(=O)Nc3cc4cc(-c5cnn(C)c5)ccc4cn3)ccn2)CC1
3. C=CC(=O)Nc1cc(Nc2nccc(-c3cn(C)c4ccccc34)n2)c(OC)cc1N(C)CCN(C)C + CNC(=O)c1ccc(Nc2nc(OC3CCCC3)c3c(-c4ccc5nc(C)oc5c4)c[nH]c3n2)c(OC)c1

75.1
71.5
81.9

----------
Provide the reported viability, T/C of each item.
test system: 323965-272-R-J2-PDC complex spheroid viability; test: Anticancer human tumor 323965-272-R-J2-PDC cell line growth inhibition [CLK]; settings: second compound 0.316 µM; first compound 0.1 µM; hits give low values;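 further: spheroids exposed to agents for seven days before readout; percent of DMSO vehicle control wells so 100% = untreated growth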
Answers are plain numbers, in %.

Compound	viability, T/C [%]
COc1ccc([C@@H](O)c2cc(-c3ncnc4cc(N5CCOCC5)ccc34)c(F)cc2Cl)nn1 + CN1CCN(c2cc(C(=O)Nc3cc4cc(-c5cnn(C)c5)ccc4cn3)ccn2)CC1	23.9

With those in mind, consider the next compound.
Which viability, T/C is reported for this compound? CC1(C)CCC(CN2CCN(c3ccc(C(=O)NS(=O)(=O)c4ccc(NCC5CCOCC5)c([N+](=O)[O-])c4)c(Oc4cnc5[nH]ccc5c4)c3)CC2)=C(c2ccc(Cl)cc2)C1 + CNC(=O)c1ccc(Nc2nc(OC3CCCC3)c3c(-c4ccc5nc(C)oc5c4)c[nH]c3n2)c(OC)c1 69

----------
tested on: 323965-272-R-J2-PDC complex spheroid viability; assay: Anticancer human tumor 323965-272-R-J2-PDC cell line growth inhibition [CLK]; details: second compound 3.16 µM; first compound 0.0316 µM; hits give low values;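 further: spheroids exposed to agents for seven days before readout; percent of DMSO vehicle control wells so 100% = untreated growth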
Provide the reported viability, T/C of each item.

Compound	Tgt	Observed
CCN1CCN(Cc2ccc(Nc3ncc(F)c(-c4cc(F)c5nc(C)n(C(C)C)c5c4)n3)nc2)CC1 + CNC(=O)c1ccc(Nc2nc(OC3CCCC3)c3c(-c4ccc5nc(C)oc5c4)c[nH]c3n2)c(OC)c1	323965-272-R-J2-PDC complex spheroid viability	37.6%
CCCS(=O)(=O)Nc1ccc(F)c(C(=O)c2c[nH]c3ncc(-c4ccc(Cl)cc4)cc23)c1F + CNC(=O)c1ccc(Nc2nc(OC3CCCC3)c3c(-c4ccc5nc(C)oc5c4)c[nH]c3n2)c(OC)c1	323965-272-R-J2-PDC complex spheroid viability	47.6%
COc1ccc([C@@H](O)c2cc(-c3ncnc4cc(N5CCOCC5)ccc34)c(F)cc2Cl)nn1 + CNC(=O)c1ccc(Nc2nc(OC3CCCC3)c3c(-c4ccc5nc(C)oc5c4)c[nH]c3n2)c(OC)c1	323965-272-R-J2-PDC complex spheroid viability	48.7%
COC1C=CCC(C)C(C)S(=O)(=O)NC(=O)c2ccc3c(c2)N(CC2CCC21)CC1(CCCc2cc(Cl)ccc21)CO3 (centres undefined) + CNC(=O)c1ccc(Nc2nc(OC3CCCC3)c3c(-c4ccc5nc(C)oc5c4)c[nH]c3n2)c(OC)c1	323965-272-R-J2-PDC complex spheroid viability	46.1%
CC(=O)O[C@H]1C(=O)[C@@]2(C)[C@H]([C@H](OC(=O)c3ccccc3)[C@]3(O)C[C@H](OC(=O)[C@H](O)[C@@H](NC(=O)c4ccccc4)c4ccccc4)C(C)=C1C3(C)C)[C@]1(OC(C)=O)CO[C@@H]1C[C@@H]2O + CNC(=O)c1ccc(Nc2nc(OC3CCCC3)c3c(-c4ccc5nc(C)oc5c4)c[nH]c3n2)c(OC)c1	323965-272-R-J2-PDC complex spheroid viability	48.6%

Could I get viability, T/C for every one of these entries?
1. O=C(c1cc(Cc2n[nH]c(=O)c3ccccc23)ccc1F)N1CCN(C(=O)C2CC2)CC1 + CNC(=O)c1ccc(Nc2nc(OC3CCCC3)c3c(-c4ccc5nc(C)oc5c4)c[nH]c3n2)c(OC)c1
2. CC(CO)NC(=O)c1cc(-c2ccc(Cl)cc2)nn(-c2cnn(C)c2)c1=O (centres undefined) + CN1CCN(c2cc(C(=O)Nc3cc4cc(-c5cnn(C)c5)ccc4cn3)ccn2)CC1
3. CC1COCCN1c1cc(C2(S(C)(=N)=O)CC2)nc(-c2ccnc3[nH]ccc23)n1 (centres undefined) + CNC(=O)c1ccc(Nc2nc(OC3CCCC3)c3c(-c4ccc5nc(C)oc5c4)c[nH]c3n2)c(OC)c1
4. C#Cc1c(F)ccc2cc(O)cc(-c3ncc4c(N5CC6CCC(C5)N6)nc(OCC56CCCN5CC(F)C6)nc4c3F)c12 (centres undefined) + CNC(=O)c1ccc(Nc2nc(OC3CCCC3)c3c(-c4ccc5nc(C)oc5c4)c[nH]c3n2)c(OC)c1

1: 44%; 2: 4.17%; 3: 41.7%; 4: 36.5%
